target: SARS-CoV-2 Spike (S) protein, strain BetaCoV/Wuhan-Hu-1/2019, full length (SARS-CoV-2 Wuhan-Hu-1, UniProt P0DTC2 14-1273); experiment: cell-based or functional assay
quantity: Percent neutralization of infection, dilution 2 (%)
Just the number please, in %, no unit attached.

binder	measured-number
SARS-CoV-2 S303 mAb (B cell supernatant) (antibody, V domains shown) VH: EVQLVESGGGLVKPGGSLRLSCAASGFTFLTYSMNWVRQTPGKRLQWVSAISGSGGATYYADSVKGRFTISRDNSKNTLYLQMNTVTADDTAIYFCARERDDIFPMGLNAFDIWGQGAMVIVSS VL: DIQMTQSPSTLSASVGDRVTITCRASQSISNWLAWYQQKPGKAPKLLIYKASSLESGVPSRFSGSGSGTEFTLTISSLQPDDSATYYCQQYDTYSWTFGQGTKVEIK	6
SARS-CoV-2 S304 mAb (B cell supernatant) (antibody, V domains shown) VH: EVQLVESGGGLVQPGGSLRLSCAASGFTFSSYDMHWVRQTTGKGLEWVSTIGTAGDTYYPDSVKGRFTISREDAKNSLYLQMNSLRAGDTAVYYCARGDSSGYYYYFDYWGQGTLLTVSS VL: DIQMTQSPSSLSAAVGDRVTITCRASQSIGSYLNWYQQKPGKAPKLLIYAASSLQSGVPSRFSGSGSGTDFTLTISSLQPEDFAIYYCQQSYVSPTYTFGPGTKVDIK	-21
SARS-CoV-2 S306 mAb (B cell supernatant) (antibody, V domains shown) VH: QVQLVQSGAEVKKPGASVKVSCKASTYTFTSFGISWVRQAPGQGLEWMGWITTYSGDTNYAQKFQGRVTMTTDTSTNTAYMELRSLRSDDTAVYYCASDYFDSSGYYHSFDYWGQGTLVTVSS VL: EIVLTQSPDTLSLSPGERATLSCRASQSVSSYLAWYQQRPGQAPRLLIYDASKRATGIPARFSGSGSGTDFTLTISSLEPEDFAVYYCQQRSNWPPGCSFGQGTKVEIK	-19

Turning now to a further binder:
Need Percent neutralization of infection, dilution 2 of SARS-CoV-2 S308 mAb (B cell supernatant) (antibody, V domains shown) VH: QVQLVESGGGVVQPGRSLRLSCAASRFTFSSYGMHWVRQAPGKGLEWVAVIWHDGNNKHYGDSVKGRVTISRDNSKNTLYLQMTSLRAEDTAVYYCARAVTTFKGSGRARMRGMDVWGQGTTVTVSS VL: DIQLTQSPSFLSASVGDRVTITCRASQGINTYLAWYQQKPGKAPKLLIYAASTLQSGVPSRFSGSGSGTEFTLTISSLQPEDFATYYCQHLDTYPFTFGPGTKVDIK , thanks.
-46
